Measured values drawn from patent EP0908457B1 for this set.

System: Oryza sativa, (L.) Tebonnet
Assay: Rice tolerance to post-transplant applications under flooded paddy conditions (Example 187), ORYSAT (Rice, Tebonnet)
Conditions: Rate 0.1250 kg/ha, rated three to four weeks after treatment
ORYSAT herbicidal effect rating overview
measurement_name: ORYSAT herbicidal effect rating

compound=Cn1c(C(F)(F)F)cc(=O)n(-c2ccc3snc(COCC(=O)O)c3c2)c1=O result_number=0.0
compound=C#CCOC(=O)COc1ccc(-c2nsc3ccc(-n4c(=O)cc(C(F)(F)F)n(C)c4=O)cc23)cc1 result_number=2.0
compound=COC(=O)/C=C/c1nsc2ccc(-n3c(=O)cc(C(F)(F)F)n(C)c3=O)cc12 result_number=4.0
compound=Cn1c(C(F)(F)F)cc(=O)n(-c2ccc3snc(CO)c3c2)c1=O result_number=6.0
compound=CC(C)=CCOCc1nsc2ccc(-n3c(=O)cc(C(F)(F)F)n(C)c3=O)cc12 result_number=6.0
compound=Cn1c(C(F)(F)F)cc(=O)n(-c2ccc3snc(C=C(Br)Br)c3c2)c1=O result_number=0.0
compound=Cn1c(C(F)(F)F)cc(=O)n(-c2ccc3snc(-c4ccccc4OCC(=O)NS(C)(=O)=O)c3c2)c1=O result_number=5.0
compound="C=C(C(=O)OC)C(C)OCc1nsc2ccc(-n3c(=O)cc(C(F)(F)F)n(C)c3=O)cc12 (centres unmarked)" result_number=6.0
